Property: MIC; scope: individual molecules
tested on: Aspergillus fumigatus; experiment: Antifungal activity against Aspergillus fumigatus CGMCC3.7795 assessed as fungal growth inhibition by NCCLS protocol based method; type: functional
Just the number in µg/mL, nothing appended.

>  <molecule>
N#Cc1cccc(-c2ccc(C3=NC(Cn4ccnc4)(c4ccc(F)cc4)CO3)s2)c1 (centres undefined)

>  <valueType>
MIC

>  <unitInfo>
µg/mL

>  <measuredValue>
16

$$$$

// MIC lookup, molecule = CCC(C)n1ncn(-c2ccc(N3CCN(c4ccc(OCC5COC(Cn6cncn6)(c6ccc(Cl)cc6Cl)O5)cc4)CC3)cc2)c1=O (centres undefined) [ITRACONAZOLE] , result: 0.125

###

Each record here notes measured half-life.
assay: Stability in human plasma assessed as half life measured at 120 mins by LC/MS-MS analysis; format: ADME, cell-free

>  <compound>
Fc1ccc(C2(Cn3ccnc3)COC(c3ccc(-c4ccccc4F)s3)=N2)cc1 (configuration not stated)

>  <half-life>
> 4.8 h

$$$$

Turning to the following compound.
Note to self: half-life recorded for c1ccc(-c2ccc(C3=NC(Cn4ccnc4)(c4ccccc4)CO3)s2)cc1 (configuration not stated) was > 4.8 h

###

assay: AUClast in Sprague-Dawley rat at 10 mg/kg, po measured after 24 hrs by LC-MS/MS analysis; type: ADME, organism-based; parameters: dose 10 mg/kg, time 24 hrs, route po; settings: in vivo
valueType: AUC(0-t) at 24 h (ng·h/mL)
Use ng·h/mL as the unit, but write only the number.

In plain terms, Fc1ccc(C2(Cn3ccnc3)COC(c3ccc(-c4ccccc4F)s3)=N2)cc1 (stereo unspecified) has a documented AUC(0-t) at 24 h of 466

###

test: Half life in Sprague-Dawley rat at 3 mg/kg, iv measured after 24 hrs by LC-MS/MS analysis; format: ADME, organism-based; settings: in vivo
valueType: half-life

Memo: Fc1ccc(C2(Cn3ccnc3)COC(c3ccc(-c4ccccc4F)s3)=N2)cc1 (stereo unspecified) , reported half-life: 61.2 min

###

# CLint listing for each entry below
assay: Metabolic stability in human microsomes assessed as intrinsic clearance preincubated for 10 mins followed by NADPH addition and measured after 5 to 60 mins by LC-MS/MS analysis; format: ADME, Microsome; conditions: time 15-70 min
Entry rule: numbers only, all in µL/min/mg.

>  <compound>
c1ccc(-c2ccc(C3=NC(Cn4ccnc4)(c4ccccc4)CO3)s2)cc1 (stereo not drawn)

>  <unitInfo>
µL/min/mg

>  <CLint>
27.6

$$$$
>  <compound>
Cc1ccc(C(=O)C(Cn2ccnc2)NC(=O)c2ccc(-c3ccc(Cl)cc3)s2)cc1 (stereo not drawn)

>  <unitInfo>
µL/min/mg

>  <CLint>
74.6

$$$$

The record that follows has no CLint shown yet.
Memo: Fc1ccc(C2(Cn3ccnc3)COC(c3ccc(-c4ccccc4F)s3)=N2)cc1 (stereo not drawn) , reported CLint: 19.7

###

test system: Aspergillus fumigatus; assay: Antifungal activity against Aspergillus fumigatus CGMCC3.7795 assessed as fungal growth inhibition by NCCLS protocol based method; type: functional
valueType: MIC (µg/mL)
Please respond with the number in µg/mL and leave the unit unwritten.

>  <compound>
c1ccc(-c2ccc(C3=NC(Cn4ccnc4)(c4ccccc4)CO3)s2)cc1 (stereo not given)

>  <testedOn>
Aspergillus fumigatus

>  <measuredValue>
8

$$$$
>  <compound>
Cc1ccc(C2(Cn3ccnc3)COC(c3ccc(-c4ccccc4)s3)=N2)cc1 (stereo not given)

>  <testedOn>
Aspergillus fumigatus

>  <measuredValue>
16

$$$$
>  <compound>
Fc1ccc(-c2ccc(C3=NC(Cn4ccnc4)(c4ccc(F)cc4)CO3)s2)cc1 (stereo not given)

>  <testedOn>
Aspergillus fumigatus

>  <measuredValue>
8

$$$$

Then this compound:
Sample Fc1ccc(C2(Cn3ccnc3)COC(c3ccc(-c4ccccc4)s3)=N2)cc1 (stereo not given) ; MIC observed: 4

###

tested on: Candida albicans; assay: Antifungal activity against FLC-resistant Candida albicans CaR assessed as fungal growth inhibition by NCCLS protocol based method; assay type: functional
valueType: MIC

Here are 3 compounds together with their reported answers.
>  <compound>
Fc1ccc(C2(Cn3ccnc3)COC(c3ccc(-c4ccccc4F)s3)=N2)cc1 (configuration not stated)

>  <MIC>
0.25 µg/mL

$$$$
>  <compound>
Clc1ccc(C2(Cn3ccnc3)COC(c3ccc(-c4ccccc4)s3)=N2)cc1 (configuration not stated)

>  <MIC>
1 µg/mL

$$$$
>  <compound>
Cc1cccc(C2(Cn3ccnc3)COC(c3ccc(-c4ccccc4)s3)=N2)c1 (configuration not stated)

>  <MIC>
8 µg/mL

$$$$

Entry Fc1ccccc1C1(Cn2ccnc2)COC(c2ccc(-c3ccccc3)s2)=N1 (configuration not stated) , MIC reported as 0.125 µg/mL

// Cc1ccc(C2(Cn3ccnc3)COC(c3ccc(-c4ccccc4)s3)=N2)cc1 (configuration not stated) : MIC value = 2 µg/mL

The compound identified as "OC(Cn1cncn1)(Cn1cncn1)c1ccc(F)cc1F" registered its MIC at > 64 µg/mL

Summary for this compound, Fc1ccc(C2(Cn3ccnc3)COC(c3ccc(-c4ccccc4)s3)=N2)cc1 (configuration not stated) : MIC is 1 µg/mL

###

assay: Metabolic stability in human liver microsomes assessed as half life preincubated for 10 mins followed by NADPH addition and measured after 5 to 60 mins by LC-MS/MS analysis; type: ADME, Microsome; conditions: time 15-70 min
Below, each entry is listed with its recorded half-life.
Numbers only; they are read as min.

>  <molecule>
c1ccc(-c2ccc(C3=NC(Cn4ccnc4)(c4ccccc4)CO3)s2)cc1 (stereo not drawn)

>  <unitInfo>
min

>  <measuredValue>
50.2

$$$$

get_value(item= Fc1ccc(C2(Cn3ccnc3)COC(c3ccc(-c4ccccc4F)s3)=N2)cc1 (stereo not drawn) , readout=half-life) returns 70.5

Given item Cc1ccc(C(=O)C(Cn2ccnc2)NC(=O)c2ccc(-c3ccc(Cl)cc3)s2)cc1 (stereo not drawn) , the value recorded as its half-life is 18.6

###

system: Candida parapsilosis; test: Antifungal activity against Candida parapsilosis GIM2.190 assessed as fungal growth inhibition by NCCLS protocol based method; assay type: functional; settings: Lodderomyces parapsilosis
MIC reference

# example entries with known answers
>  <compound>
N#Cc1cccc(-c2ccc(C3=NC(Cn4ccnc4)(c4ccc(F)cc4)CO3)s2)c1 (centres undefined)

>  <testedOn>
Candida parapsilosis

>  <MIC>
> 64 µg/mL

$$$$
>  <compound>
Fc1ccc(C2(Cn3ccnc3)COC(c3ccc(-c4cccc(OC(F)(F)F)c4)s3)=N2)cc1 (centres undefined)

>  <testedOn>
Candida parapsilosis

>  <MIC>
> 64 µg/mL

$$$$

Given item Fc1ccc(-c2ccc(C3=NC(Cn4ccnc4)(c4ccc(F)cc4)CO3)s2)cc1 (centres undefined) , the value recorded as its MIC is > 64 µg/mL

Lab note: Fc1ccccc1C1(Cn2ccnc2)COC(c2ccc(-c3ccccc3)s2)=N1 (centres undefined) gave MIC of 0.25 µg/mL

Form: compound = Cc1ccc(C2(Cn3ccnc3)COC(c3ccc(-c4ccccc4)s3)=N2)cc1 (centres undefined) ; MIC = 1 µg/mL

// field: MIC; key: CC(C)c1ccccc1-c1ccc(C2=NC(Cn3ccnc3)(c3ccc(F)cc3)CO2)s1 (centres undefined) ; value = > 64 µg/mL

// MIC value for CCc1ccccc1-c1ccc(C2=NC(Cn3ccnc3)(c3ccc(F)cc3)CO2)s1 (centres undefined) : > 64 µg/mL

According to the records, this compound Fc1cccc(C2(Cn3ccnc3)COC(c3ccc(-c4ccccc4)s3)=N2)c1 (centres undefined) displays MIC of > 64 µg/mL

Reported MIC for Fc1ccc(C2(Cn3ccnc3)COC(c3ccc(-c4ccc(OCC(F)(F)F)cc4)s3)=N2)cc1 (centres undefined) was > 64 µg/mL

###

test system: Candida parapsilosis; experiment: Antifungal activity against Candida parapsilosis GIM2.190 assessed as fungal growth inhibition by NCCLS protocol based method; type: functional; settings: Lodderomyces parapsilosis
valueType: MIC (µg/mL)
Quick note: give the figure in µg/mL, leave out the unit.

Look over these answered cases.
>  <compound>
Clc1ccc(C2(Cn3ccnc3)COC(c3ccc(-c4ccccc4)s3)=N2)cc1 (centres undefined)

>  <MIC / µg/mL>
2

$$$$
>  <compound>
Cc1cccc(-c2ccc(C3=NC(Cn4ccnc4)(c4ccc(F)cc4)CO3)s2)c1 (centres undefined)

>  <MIC / µg/mL>
16

$$$$

Entry "OC(Cn1cncn1)(Cn1cncn1)c1ccc(F)cc1F" — recorded MIC = 2

# compound Fc1ccc(C2(Cn3ccnc3)COC(c3ccc(-c4ccccc4F)s3)=N2)cc1 (centres undefined) ; its MIC = 0.25

MIC in this record for CCC(C)n1ncn(-c2ccc(N3CCN(c4ccc(OCC5COC(Cn6cncn6)(c6ccc(Cl)cc6Cl)O5)cc4)CC3)cc2)c1=O (centres undefined) : 0.125

###

system: Candida parapsilosis; experiment: Antifungal activity against Candida parapsilosis GIM2.190 assessed as fungal growth inhibition by NCCLS protocol based method; type: functional; details: Lodderomyces parapsilosis
valueType: MIC

>  <molecule>
Fc1ccc(C2(Cn3ccnc3)COC(c3ccc(-c4ccccc4)s3)=N2)cc1 (stereo not given)

>  <testedOn>
Candida parapsilosis

>  <MIC>
0.25 µg/mL

$$$$
>  <molecule>
CCOc1ccc(-c2ccc(C3=NC(Cn4ccnc4)(c4ccc(F)cc4)CO3)s2)cc1 (stereo not given)

>  <testedOn>
Candida parapsilosis

>  <MIC>
> 64 µg/mL

$$$$
>  <molecule>
N#Cc1ccc(-c2ccc(C3=NC(Cn4ccnc4)(c4ccc(F)cc4)CO3)s2)cc1 (stereo not given)

>  <testedOn>
Candida parapsilosis

>  <MIC>
> 64 µg/mL

$$$$
>  <molecule>
COc1cccc(C2(Cn3ccnc3)COC(c3ccc(-c4ccccc4)s3)=N2)c1 (stereo not given)

>  <testedOn>
Candida parapsilosis

>  <MIC>
> 64 µg/mL

$$$$

As a next step, examine the molecule that follows.
Measured MIC, Fc1ccc(C2(Cn3ccnc3)COC(c3ccc(-c4ccccc4Cl)s3)=N2)cc1 (stereo not given) : > 64 µg/mL
